- Organism: Rattus norvegicus
- test_details: Open TG-GATES - Regimen: Single
- Assay type: toxicity, organism-based, Sprague-Dawley
- Parameters: regimen Single, gender Male, age 6 weeks
- condition_context: in vivo, po, 0 mg/kg, 24 h, tissue Blood, route gavage, dose level Control
Listed compounds paired with reported MCHC
# number only, unit % dropped from output

compound	result_type	data_value
Cc1cccc(C)c1OCC(C)N (stereo unspecified) [MEXILETINE]	MCHC	32.3
C=C(C)[C@H]1Cc2c(ccc3c2O[C@@H]2COc4cc(OC)c(OC)cc4[C@@H]2C3=O)O1 [ROTENONE]	MCHC	32.8
Cn1cc[nH]c1=S [METHIMAZOLE]	MCHC	35.3
Cc1ccc2cc3c(ccc4ccccc43)c3c2c1CC3 [3-METHYLCHOLANTHRENE]	MCHC	32.7
O=[N+]([O-])c1ccc(O)c([N+](=O)[O-])c1 [2,4-DINITROPHENOL]	MCHC	33.8

// switching to the query compound
Tell me MCHC reported for OCCN1CCN(CCCN2c3ccccc3Sc3ccc(C(F)(F)F)cc32)CC1 [FLUPHENAZINE]
33.4

====

- Species: Rattus norvegicus
- test_details: Open TG-GATES - Regimen: Single
- Assay type: toxicity, organism-based, Sprague-Dawley
- Design: regimen Single, gender Male, age 6 weeks
- condition_context: in vivo, po, 0 mg/kg, 9 h, tissue Blood, route gavage, dose level Control
Listed compounds paired with reported RBC
# number only, unit x10_4/ul dropped from output

These solved cases illustrate the format of a correct answer.
compound	u	RBC
Cc1ccc2cc3c(ccc4ccccc43)c3c2c1CC3	x10_4/ul	603.8
CCOC(=O)C(C)(C)Oc1ccc(Cl)cc1 [CLOFIBRATE]	x10_4/ul	644.4

Tell me RBC reported for `C=C(C)[C@H]1Cc2c(ccc3c2O[C@@H]2COc4cc(OC)c(OC)cc4[C@@H]2C3=O)O1`
609

====

- Species on record: Rattus norvegicus
- test_details: Open TG-GATES - Regimen: Daily Repeat
- Type: toxicity, organism-based, Sprague-Dawley
- Design: regimen Daily Repeat, gender Male, age 6 weeks
- condition_context: in vivo, po, 0 mg/kg, 72 h, tissue Plasma, route gavage, dose level Control, time 3 day
Listed molecules paired with reported K
Param answer (str): number followed by unit.

These solved cases illustrate the format of a correct answer.
molecule	K
Cc1cccc(C)c1OCC(C)N (stereo not given) [MEXILETINE]	4.4 meq/L
C=C(C)[C@H]1Cc2c(ccc3c2O[C@@H]2COc4cc(OC)c(OC)cc4[C@@H]2C3=O)O1 [ROTENONE]	4.4 meq/L
O=C1CN(/N=C/c2ccc([N+](=O)[O-])o2)C(=O)N1 [NITROFURANTOIN]	3.7 meq/L

Tell me K reported for C[C@H]1C(=O)O[C@@H]2CCN3CC=C(COC(=O)[C@](C)(O)[C@]1(C)O)[C@H]23 [MONOCROTALINE]
4.6 meq/L

Tell me K reported for CCOC(=O)C(C)(C)Oc1ccc(Cl)cc1 [CLOFIBRATE]
4.1 meq/L

====

Listed molecules paired with reported PT
- Species on record: Rattus norvegicus
- test_details: Open TG-GATES - Regimen: Single
- Type: toxicity, organism-based, Sprague-Dawley
- Parameters: regimen Single, gender Male, age 6 weeks
- condition_context: in vivo, po, 0 mg/kg, 9 h, tissue Blood, route gavage, dose level Control
# number only, unit s dropped from output

These solved cases illustrate the format of a correct answer.
molecule	PT [s]
C[C@H]1O[C@H](O[C@H]2[C@H](O)[C@@H](O)[C@@H](O[C@H]3[C@H](O)[C@@H](O)C(O)O[C@@H]3CO)O[C@@H]2CO)[C@H](O)[C@@H](O)[C@@H]1N[C@H]1C=C(CO)[C@@H](O)[C@H](O)[C@H]1O (stereo partly drawn) [ACARBOSE]	13.6
Cc1cccc(C)c1OCC(C)N (stereo not drawn) [MEXILETINE]	16.2
CCOC(=O)C(C)(C)Oc1ccc(Cl)cc1 [CLOFIBRATE]	13
Cn1cc[nH]c1=S [METHIMAZOLE]	16
C=C(C)[C@H]1Cc2c(ccc3c2O[C@@H]2COc4cc(OC)c(OC)cc4[C@@H]2C3=O)O1 [ROTENONE]	12.2

Tell me PT reported for O=[N+]([O-])c1ccc(O)c([N+](=O)[O-])c1 [2,4-DINITROPHENOL]
12.2

Tell me PT reported for OCCN1CCN(CCCN2c3ccccc3Sc3ccc(C(F)(F)F)cc32)CC1 [FLUPHENAZINE]
12.5

Tell me PT reported for C[C@H]1C(=O)O[C@@H]2CCN3CC=C(COC(=O)[C@](C)(O)[C@]1(C)O)[C@H]23 [MONOCROTALINE]
16.2

====

- Species on record: Rattus norvegicus
- test_details: Open TG-GATES - Regimen: Single
- Assay type: toxicity, organism-based, Sprague-Dawley
- Set-up: regimen Single, gender Male, age 6 weeks
- condition_context: in vivo, po, 0 mg/kg, 3 h, tissue Plasma, route gavage, dose level Control
Assign 1.0 whenever gamma-GTP does not fall below 1 IU/L; assign 0.0 whenever it does.

Answered cases to consult:
compound	assigned_category
Cc1cccc(C)c1OCC(C)N (stereo not given) [MEXILETINE]	1.0
O=[N+]([O-])c1ccc(O)c([N+](=O)[O-])c1 [2,4-DINITROPHENOL]	0.0
Cc1ccc2cc3c(ccc4ccccc43)c3c2c1CC3 [3-METHYLCHOLANTHRENE]	0.0

Please find the next compound below.
Is it the case that OCCN1CCN(CCCN2c3ccccc3Sc3ccc(C(F)(F)F)cc32)CC1 [FLUPHENAZINE] has gamma-GTP reaching or exceeding 1 IU/L?
1.0

====

- Species: Rattus norvegicus
- test_details: Open TG-GATES - Regimen: Single
- Assay type: toxicity, organism-based, Sprague-Dawley
- Design: regimen Single, gender Male, age 6 weeks
- condition_context: in vivo, po, 0 mg/kg, 24 h, tissue Plasma, route gavage, dose level Control
result_type: LDH

compound	data_value
O=[N+]([O-])c1ccc(O)c([N+](=O)[O-])c1	84.2 IU/L
Cc1cccc(C)c1OCC(C)N (centres undefined)	166 IU/L
C[C@H]1C(=O)O[C@@H]2CCN3CC=C(COC(=O)[C@](C)(O)[C@]1(C)O)[C@H]23	227.2 IU/L
Cn1cc[nH]c1=S	183.2 IU/L
OCCN1CCN(CCCN2c3ccccc3Sc3ccc(C(F)(F)F)cc32)CC1	107.4 IU/L

Tell me LDH reported for C[C@H]1O[C@H](O[C@H]2[C@H](O)[C@@H](O)[C@@H](O[C@H]3[C@H](O)[C@@H](O)C(O)O[C@@H]3CO)O[C@@H]2CO)[C@H](O)[C@@H](O)[C@@H]1N[C@H]1C=C(CO)[C@@H](O)[C@H](O)[C@H]1O (some centres undefined)
60.8 IU/L

Tell me LDH reported for `C=C(C)[C@H]1Cc2c(ccc3c2O[C@@H]2COc4cc(OC)c(OC)cc4[C@@H]2C3=O)O1`
93.8 IU/L

Tell me LDH reported for `Cc1ccc2cc3c(ccc4ccccc43)c3c2c1CC3`
181 IU/L

Tell me LDH reported for CCOC(=O)C(C)(C)Oc1ccc(Cl)cc1 [CLOFIBRATE]
198.2 IU/L

====

Listed molecules paired with reported ALP
- Organism: Rattus norvegicus
- test_details: Open TG-GATES - Regimen: Daily Repeat
- Type: toxicity, organism-based, Sprague-Dawley
- Design: regimen Daily Repeat, gender Male, age 6 weeks
- condition_context: in vivo, po, 0 mg/kg, 72 h, tissue Plasma, route gavage, dose level Control, time 3 day
# number only, unit IU/L dropped from output

These solved cases illustrate the format of a correct answer.
molecule	data_value
O=[N+]([O-])c1ccc(O)c([N+](=O)[O-])c1 [2,4-DINITROPHENOL]	1481
C[C@H]1O[C@H](O[C@H]2[C@H](O)[C@@H](O)[C@@H](O[C@H]3[C@H](O)[C@@H](O)C(O)O[C@@H]3CO)O[C@@H]2CO)[C@H](O)[C@@H](O)[C@@H]1N[C@H]1C=C(CO)[C@@H](O)[C@H](O)[C@H]1O (some centres undefined) [ACARBOSE]	1816
C=C(C)[C@H]1Cc2c(ccc3c2O[C@@H]2COc4cc(OC)c(OC)cc4[C@@H]2C3=O)O1 [ROTENONE]	1677.6
Cc1cccc(C)c1OCC(C)N (centres undefined) [MEXILETINE]	1769.2
O=C1CN(/N=C/c2ccc([N+](=O)[O-])o2)C(=O)N1 [NITROFURANTOIN]	885
CCOC(=O)C(C)(C)Oc1ccc(Cl)cc1 [CLOFIBRATE]	881.8
C[C@H]1C(=O)O[C@@H]2CCN3CC=C(COC(=O)[C@](C)(O)[C@]1(C)O)[C@H]23 [MONOCROTALINE]	1771.6
Cn1cc[nH]c1=S [METHIMAZOLE]	1736

Tell me ALP reported for OCCN1CCN(CCCN2c3ccccc3Sc3ccc(C(F)(F)F)cc32)CC1 [FLUPHENAZINE]
922
